Just for reference, PubChem BioAssay (NCI) is where these values come from.

test system: SF-295 CNS; assay: NCI tumour cell line growth inhibition, 48 h
propertyName: log10(TGI) (log10 of the value in µM)
# values: log10(TGI), units µM

Some solved cases for reference:
C=C1C(=O)OC2/C=C(\CO)CC/C=C(\CO)CC(OC(=O)C(C)C)C12 (stereo unspecified) :: 1.66
CC1CCCc2c1c1ccc3c(O)cccc3c1oc2=O (stereo unspecified) :: 1.53
O=c1cccccc1[O-].O=c1cccccc1[O-].O=c1cccccc1[O-].[Ce+3] :: 1.89
Fc1ccc2c(c1)C1=C(CO2)C(c2ccc(Cl)cc2)NC(=S)N1 (stereo unspecified) :: 1.67

Now consider the entry below.
q: Requested field: log10(TGI). Item: CCN(CC)CCn1c2ccc(OC)cc2c2sc3cc(OC)ccc3c(=O)c21
a: 0.54
